- subject_of_test: NAD(P)H dehydrogenase [quinone] 1 (Homo sapiens) (UniProt P15559)
- Sequence (P15559 whole entry): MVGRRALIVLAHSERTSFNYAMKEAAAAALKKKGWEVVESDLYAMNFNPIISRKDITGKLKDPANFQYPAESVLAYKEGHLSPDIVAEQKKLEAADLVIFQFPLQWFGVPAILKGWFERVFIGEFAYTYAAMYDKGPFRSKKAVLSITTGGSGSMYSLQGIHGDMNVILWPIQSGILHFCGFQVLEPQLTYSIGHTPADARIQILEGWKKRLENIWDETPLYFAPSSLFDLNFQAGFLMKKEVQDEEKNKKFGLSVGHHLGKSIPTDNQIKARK
- assay_info: Substrate specificity towards human NAD(P)H quinone reductase
Kind request: treat 3 µM/min/mg as inclusive, so Substrate specificity at 3 µM/min/mg or higher is true, anything lower is false.

Please review the entries below; each comes with its answer.
> print(dat)
                                 molecule  classification
1  COC1=CC(=O)c2c(c(CO)c(/C=C/CO)n2C)C1=O           false
2         COC1=CC(=O)c2c(c(O)c(C)n2C)C1=O            true

Task: Hi, just wondering whether Cc1c(CO)c2c(n1C)C(=O)C=C(N1CC1)C2=O shows Substrate specificity of 3 µM/min/mg or higher.
Result: true

Task: Quick check, Substrate specificity >= 3 µM/min/mg? COC1=CC(=O)c2c(c(CO)cn2C)C1=O
Result: true

Task: Is the recorded value of Substrate specificity equal to or greater than 3 µM/min/mg for this molecule? COC1=CC(=O)c2c(c(CCl)cn2C)C1=O
Result: false

Task: API: above_or_equal(metric=Substrate specificity, cutoff=3 µM/min/mg) for item CC1CN1C1=CC(=O)c2c(c(CO)c(/C=C/CO)n2C)C1=O (stereo unspecified)
Result: false

====

- subject_of_test: NAD(P)H dehydrogenase [quinone] 1 (Homo sapiens)
- assay_info: Inhibitory activity against human NAD(P)H quinone reductase at 50 uM
# inhibition values compiled below
Your answer is read as %, so omit the unit and give the number.

Some solved entries appear below for comparison.
> print(dat)
                                   compound                           subject.of.test  measurement.type  unit.info  reported.measurement
1    COC1=CC(=O)c2c(c(CO)c(/C=C/CO)n2C)C1=O  NAD(P)H dehydrogenase [quinone] 1 (Homo sapiens)        inhibition          %                     0
2  CC1CN1C1=CC(=O)c2c(cc(C(=O)NCCN3CCCCC3)n2C)C1=O (stereo unspecified)  NAD(P)H dehydrogenase [quinone] 1 (Homo sapiens)        inhibition          %                     0
3            COC1=CC(=O)c2c(c(CCl)cn2C)C1=O  NAD(P)H dehydrogenase [quinone] 1 (Homo sapiens)        inhibition          %                    95

Task: Any idea what inhibition was measured for Cn1c(/C=C/CO)c(CO)c2c1C(=O)C=C(N1CC1)C2=O ?
Result: 4.72

Task: Which value of inhibition has been reported for COC1=CC(=O)c2c(c(COC(N)=O)c(C3CC3)n2C)C1=O in the records?
Result: 46.2

====

- subject_of_test: UniProt:P15559
- assay_info: Inhibitory activity against human NAD(P)H quinone reductase at 50 uM
measurement_type: inhibition (%)
Please give a number only; it is taken to be in %.

> print(dat)
                                compound  measurement.type  unit.info  reported.measurement
1  Cn1c(/C=C/CO)cc2c1C(=O)C=C(N1CC1)C2=O        inhibition          %                  12.8

Task: Item: Cn1cc(CO)c2c1C(=O)C=C(N1CC1)C2=O Test system: UniProt:P15559 Read-out: inhibition Value: ?
Result: 7.14

Task: Entry Cc1c(CO)c2c(n1C)C(=O)C=C(N1CC1C)C2=O (stereo unspecified) , system UniProt:P15559: what inhibition was measured?
Result: 4.06

Task: Find inhibition (UniProt:P15559) for the entry COC1=CC(=O)c2c(c(CO)cn2C)C1=O
Result: 0.59

====

- subject_of_test: NAD(P)H dehydrogenase [quinone] 1 (Homo sapiens)
- assay_info: Inhibitory activity against human NAD(P)H quinone reductase at 50 uM
measurement_type: inhibition (%)
Report the value in % with no unit label.

> print(dat)
                                   molecule  reported.measurement
1           COC1=CC(=O)c2c(c(O)c(C)n2C)C1=O                  0.59
2  COC1=CC(=O)c2c(c(COc3c(Cl)cc(Cl)cc3Cl)cn2C)C1=O                  99.1
3  COC1=CC(=O)c2c(c(COC(=O)c3ccccc3F)cn2C)C1=O                  98.9
4   Cn1c2c(c(CO)c1C1CC1)C(=O)C(N1CC1)=CC2=O                  2.55
5  Cc1c(O)c2c(n1C)C(=O)C=C(N1C(C)C1C)C2=O (configuration not stated)                     0

Task: Fill in the blank: the reported inhibition of Cc1c(CO)c2c(n1C)C(=O)C=C(N1CC1)C2=O is ____.
Result: 11.1

Task: # lookup: inhibition of COC1=CC(=O)c2c(c(COC(=O)c3ccc(F)cc3)cn2C)C1=O
Result: 99.2
